# TESTED ON: PDGFRA-D842V (Homo sapiens, UniProt P16234, D842V)
# Construct: purchased Invitrogen PV4203 (lot #2343231B)
# Sequence (P16234 24-1089 D842V): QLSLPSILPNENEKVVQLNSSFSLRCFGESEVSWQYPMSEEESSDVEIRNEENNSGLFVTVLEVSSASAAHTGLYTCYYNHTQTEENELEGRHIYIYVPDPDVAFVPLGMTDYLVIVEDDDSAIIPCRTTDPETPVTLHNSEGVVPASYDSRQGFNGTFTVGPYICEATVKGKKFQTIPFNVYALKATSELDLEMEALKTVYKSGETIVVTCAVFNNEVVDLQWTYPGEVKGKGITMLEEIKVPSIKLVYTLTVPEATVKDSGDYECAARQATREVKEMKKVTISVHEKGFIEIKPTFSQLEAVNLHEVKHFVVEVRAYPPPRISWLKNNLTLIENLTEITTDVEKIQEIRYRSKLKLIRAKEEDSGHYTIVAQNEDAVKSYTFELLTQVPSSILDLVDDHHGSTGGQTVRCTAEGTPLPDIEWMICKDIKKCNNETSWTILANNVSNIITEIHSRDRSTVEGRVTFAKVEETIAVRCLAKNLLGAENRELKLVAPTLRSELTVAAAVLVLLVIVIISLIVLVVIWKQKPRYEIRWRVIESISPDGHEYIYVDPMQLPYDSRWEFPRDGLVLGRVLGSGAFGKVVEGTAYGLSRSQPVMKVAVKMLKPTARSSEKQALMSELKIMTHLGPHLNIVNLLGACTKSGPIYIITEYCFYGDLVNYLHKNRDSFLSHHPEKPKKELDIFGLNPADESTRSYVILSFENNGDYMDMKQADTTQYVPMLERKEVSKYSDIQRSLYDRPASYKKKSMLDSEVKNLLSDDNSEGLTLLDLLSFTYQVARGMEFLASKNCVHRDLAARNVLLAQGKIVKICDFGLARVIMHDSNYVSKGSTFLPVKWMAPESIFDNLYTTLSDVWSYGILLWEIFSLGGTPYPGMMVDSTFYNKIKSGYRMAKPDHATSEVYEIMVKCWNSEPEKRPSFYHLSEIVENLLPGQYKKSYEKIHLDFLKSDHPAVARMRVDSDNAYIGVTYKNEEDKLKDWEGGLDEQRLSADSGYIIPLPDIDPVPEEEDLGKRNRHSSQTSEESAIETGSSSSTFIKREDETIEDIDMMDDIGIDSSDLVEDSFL
# PROCEDURE SUMMARY: Activity-based HTRF KinEASE assay, PDGFRA-D842V
# Type: biochemical
# CONDITION DETAILS: mean ± s.d., n ≥ 3; ATP at KM (14 µM); read-out: HTRF IC50 PDGFRA-D842V
pIC50: −log10 of the molar value.
Label Fulfilled when pIC50 >= 7; otherwise Not fulfilled.

> print(dat)
                               query.smiles   category
1  CN(C)[C@@](C)(c1ccc(F)cc1)c1cnc(N2CCN(c3ncnn4cc(-c5cnn(C)c5)cc34)CC2)nc1  Fulfilled
2  COC(=O)N[C@@](C)(c1ccc(F)cc1)c1cnc(N2CCN(c3ncnn4cc(-c5cnn(C)c5)cc34)CC2)nc1  Fulfilled

Prompt: Exam item: decide whether the reported pIC50 for Cn1cc(-c2cc3c(N4CCC5(CC4)CN(c4ncc(Cc6ccccc6)cn4)C5)ncnn3c2)cn1 is at least 7.
Response: Not fulfilled

Prompt: Exam item: decide whether the reported pIC50 for Cn1cc(-c2cc3c(N4CC5(CN(c6ncc(Cc7ccccc7)cn6)C5)C4)ncnn3c2)cn1 is at least 7.
Response: Not fulfilled

Prompt: Exam item: decide whether the reported pIC50 for Cn1cc(-c2cc3c(N4CCN(c5ncccn5)CC4)ncnn3c2)cn1 is at least 7.
Response: Fulfilled

Prompt: Exam item: decide whether the reported pIC50 for C=CC(=O)N[C@@](C)(c1ccc(F)cc1)c1cnc(N2CCN(c3ncnn4cc(-c5cnn(C)c5)cc34)CC2)nc1 is at least 7.
Response: Fulfilled
